Target: T1, human C5 R885H-mmh (human, UniProt P01031 19-1676)
T1 construct: also called human C5 variant R885H
Test: SPR, mAb captured via anti-hFc, 37C

| binder | resultUnit | t1/2 |
| --- | --- | --- |
| H4H12161P (antibody, human IgG4, V domains shown, Human IgG4 Fc with S108P hinge mutation (H4H)) VH: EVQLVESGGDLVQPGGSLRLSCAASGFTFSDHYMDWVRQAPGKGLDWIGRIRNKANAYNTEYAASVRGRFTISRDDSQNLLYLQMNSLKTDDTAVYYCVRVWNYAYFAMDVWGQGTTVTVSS VL: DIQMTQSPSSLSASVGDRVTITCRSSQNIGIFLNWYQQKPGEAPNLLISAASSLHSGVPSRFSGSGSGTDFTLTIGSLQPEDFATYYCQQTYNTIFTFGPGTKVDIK | min | 12 |
| H4H12171P (antibody, human IgG4, V domains shown, Human IgG4 Fc with S108P hinge mutation (H4H)) VH: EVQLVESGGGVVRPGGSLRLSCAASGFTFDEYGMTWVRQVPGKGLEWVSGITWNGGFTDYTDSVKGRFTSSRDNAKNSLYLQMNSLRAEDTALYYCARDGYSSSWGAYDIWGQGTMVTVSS VL: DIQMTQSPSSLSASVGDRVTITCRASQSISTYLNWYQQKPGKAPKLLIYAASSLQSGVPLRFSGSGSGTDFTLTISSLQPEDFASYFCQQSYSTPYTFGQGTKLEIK | min | 12 |
| H4H11686N (antibody, V domains shown, also called H2M11686N) VH: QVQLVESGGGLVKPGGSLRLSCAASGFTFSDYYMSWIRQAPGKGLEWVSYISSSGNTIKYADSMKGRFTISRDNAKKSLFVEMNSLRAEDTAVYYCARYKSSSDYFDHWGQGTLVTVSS VL: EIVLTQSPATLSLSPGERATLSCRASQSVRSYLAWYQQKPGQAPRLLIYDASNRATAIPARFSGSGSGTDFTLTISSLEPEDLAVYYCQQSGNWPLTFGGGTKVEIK | min | 14 |
